- Target Of Assay: T1, recombinant MS4A4A soluble polypeptide JS5
- T1 construct: also called JS5.His
- Assay Overview: ELISA, 1 ug/ml antibody
Property Measured: ELISA OD

anti-MS4A4A antibody 4A-314 (antibody, V domains shown, full human IgG) VH: QVQLVQSGAEVKKPGASVKVSCKASGYTFTNYWMQWVRQAPGQGLEWMGTTLPGHGDTRYAQKFQGRVTMTRDTSTSTVYMELSSLRSEDTAVYYCAREEVYYGFRSYWYFDVWGRGTLVTVSS VL: EIVLTQSPATLSLSPGERATLSCRASESVDNYGVSRMNWYQQKPGQAPRLLIYGASNQGSGIPARFSGSGSGTDFTLTISSLEPEDFAVYYCQQSKEVPPTFGGGTKVEIK = 1.14

# evaluate next
stdin: # lookup: ELISA OD of anti-MS4A4A antibody 4A-351 (antibody, V domains shown, full human IgG) VH: QVQLVQSGSELKKPGASVKVSCKASGYIFTSYGLSWVRQAPGQGLEWMGWINTYSGVPTYAQGFTGRFVFSLDTSVSTAYLQISSLKAEDTAVYYCARTLADYWGQGTLVTVSS VL: DVVMTQSPLSLPVTLGQPASISCKSSRSLLYSDGKTYLSWFQQRPGQSPRRLIYLVSKLDSGVPDRFSGSGSGTDFTLKISRVEAEDVGVYYCWQGIDFHQTFGGGTKVEIK
stdout: 0.953

Reference source for all entries: patent US20210079074A1
